Target chain: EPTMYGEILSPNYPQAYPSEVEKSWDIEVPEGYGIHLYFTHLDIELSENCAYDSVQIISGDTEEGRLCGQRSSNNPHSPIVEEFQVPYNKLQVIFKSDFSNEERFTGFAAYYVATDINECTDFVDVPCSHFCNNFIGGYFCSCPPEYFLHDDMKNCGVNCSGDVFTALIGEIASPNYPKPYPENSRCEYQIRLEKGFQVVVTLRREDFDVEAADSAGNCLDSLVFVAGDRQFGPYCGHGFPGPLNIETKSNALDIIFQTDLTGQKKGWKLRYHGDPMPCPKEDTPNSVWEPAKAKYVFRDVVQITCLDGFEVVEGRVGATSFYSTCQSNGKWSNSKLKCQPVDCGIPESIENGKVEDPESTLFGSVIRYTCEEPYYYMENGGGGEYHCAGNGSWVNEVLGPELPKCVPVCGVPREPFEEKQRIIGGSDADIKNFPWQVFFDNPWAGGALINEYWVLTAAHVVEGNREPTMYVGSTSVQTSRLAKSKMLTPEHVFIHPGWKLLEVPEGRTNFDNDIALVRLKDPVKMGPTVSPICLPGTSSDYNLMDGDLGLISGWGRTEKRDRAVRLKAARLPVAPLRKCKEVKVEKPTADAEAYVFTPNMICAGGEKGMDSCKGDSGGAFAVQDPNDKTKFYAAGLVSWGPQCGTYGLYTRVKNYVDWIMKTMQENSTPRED
pIC50: −log10 of the molar value.
Think of 8 as a floor: if pIC50 stands on it or above, it is True; beneath it, False.

MOLECULE	DISCRETE_LABEL
N=C(N)c1cc2cc(OC(=O)c3ccco3)ccc2o1	False
N=C(N)C1COc2cc(OC(=O)c3ccco3)ccc2C1 (stereo not drawn)	False
N=C(N)c1cc2ccc(OC(=O)c3ccco3)cc2o1	False
N=C(N)c1cc2ccc(OC(=O)c3ccsc3)cc2s1	True
N=C(N)c1nc2ccc(OC(=O)c3ccco3)cc2s1	True
N=C(N)c1ccc2cc(OC(=O)c3ccccc3)ccc2c1 [reference, reference compound]	False
N=C(N)c1ccc2cc(OC(=O)c3ccc(N=C(N)N)cc3)ccc2c1 [nafamostat, reference compound]	False
N=C(N)C1=Cc2ccc(OC(=O)c3ccco3)cc2OC1	True
